target: UniProtKB P52500; experiment: Amylase release from rat pancreatic acini (alone or Bn-stimulated); type: cell-based; parameters: from tissue; host or cells: dispersed pancreatic acini; details: analog 10 μM alone, control 4 ± 1
Sequence (P52500 whole entry): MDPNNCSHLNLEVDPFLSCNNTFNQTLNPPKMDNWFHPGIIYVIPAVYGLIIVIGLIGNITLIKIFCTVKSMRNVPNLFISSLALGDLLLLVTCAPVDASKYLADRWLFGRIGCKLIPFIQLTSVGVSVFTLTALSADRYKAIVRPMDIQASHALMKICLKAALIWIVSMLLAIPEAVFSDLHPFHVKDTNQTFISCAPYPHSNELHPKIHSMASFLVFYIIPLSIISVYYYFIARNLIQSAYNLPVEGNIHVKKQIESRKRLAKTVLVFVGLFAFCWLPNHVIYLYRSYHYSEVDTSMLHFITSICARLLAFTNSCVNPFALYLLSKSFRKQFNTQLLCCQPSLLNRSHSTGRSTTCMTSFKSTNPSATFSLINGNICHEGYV
Where a SMILES comes first, the peptide text is derived from it. Bridges are numbered along the chain shown (N, C = ends). [ ]: non-standard residue; d: D form. 2Nal = N[C@@H](Cc1ccc2ccccc2c1)C(=O)O; d2Nal = N[C@H](Cc1ccc2ccccc2c1)C(=O)O
assay_readout: Amylase Release, analog Alone (10 μM) (% total)
Only the number, expressed in % total, is required.

query: Which Amylase Release, analog Alone (10 μM) is listed for CC(C)[C@@H]1NC(=O)[C@H](CCCCN)NC(=O)[C@@H](Cc2c[nH]c3ccccc23)NC(=O)[C@H](Cc2ccc(O)cc2)NC(=O)[C@@H](NC(=O)[C@@H](N)Cc2ccc3ccccc3c2)CSSC[C@@H](C(=O)N[C@H](Cc2ccc3ccccc3c2)C(N)=O)NC1=O [Analog #9] (H-[2Nal]CY[dW]KVC[d2Nal]-NH2; disulfide 2-7) ?
result: 3

query: Which value of Amylase Release, analog Alone (10 μM) has been reported for CC(C)[C@@H]1NC(=O)[C@H](CCCCN)NC(=O)[C@@H](Cc2c[nH]c3ccccc23)NC(=O)[C@H](Cc2ccc(O)cc2)NC(=O)[C@@H](NC(=O)[C@H](N)Cc2ccc3ccccc3c2)CSSC[C@H](C(=O)N[C@@H](Cc2ccc3ccccc3c2)C(N)=O)NC1=O [Analog #11] (H-[d2Nal]CY[dW]KV[dC][2Nal]-NH2; disulfide 2-7) in the records?
result: 2

query: Given the entry CC(C)[C@@H]1NC(=O)[C@H](CCCCN)NC(=O)[C@@H](Cc2ccc3ccccc3c2)NC(=O)[C@H](Cc2ccc(O)cc2)NC(=O)[C@@H](NC(=O)[C@H](N)Cc2ccc3ccccc3c2)CSSC[C@@H](C(=O)N[C@@H](Cc2ccc3ccccc3c2)C(N)=O)NC1=O [Analog #17] (H-[d2Nal]CY[d2Nal]KVC[2Nal]-NH2; disulfide 2-7) , report its measured Amylase Release, analog Alone (10 μM).
result: 4

query: Data request, read-out Amylase Release, analog Alone (10 μM), for C[C@@H](O)[C@H](NC(=O)[C@@H]1CSSC[C@H](NC(=O)[C@H](N)Cc2ccc3ccccc3c2)C(=O)N[C@@H](Cc2ccc(O)cc2)C(=O)N[C@H](Cc2c[nH]c3ccccc23)C(=O)N[C@@H](CCCCN)C(=O)N[C@@H]([C@@H](C)O)C(=O)N1)C(N)=O [Analog #6]
result: 3

query: Suppose we examine the molecule C[C@@H](O)[C@@H]1NC(=O)[C@H](CCCCN)NC(=O)[C@@H](Cc2c[nH]c3ccccc23)NC(=O)[C@H](Cc2ccc(O)cc2)NC(=O)[C@@H](NC(=O)[C@H](N)Cc2ccccc2)CSSC[C@@H](C(=O)N[C@@H](Cc2ccc3ccccc3c2)C(N)=O)NC1=O [Analog #7] (H-[dF]CY[dW]KTC[2Nal]-NH2; disulfide 2-7) ; what Amylase Release, analog Alone (10 μM) value has been reported?
result: 3

query: Entry under review: C[C@@H](O)[C@H](NC(=O)[C@@H]1CSSC[C@H](NC(=O)[C@H](N)Cc2ccc3ccccc3c2)C(=O)N[C@@H](Cc2ccc(O)cc2)C(=O)N[C@H](Cc2c[nH]c3ccccc23)C(=O)N[C@@H](CCCCN)C(=O)N[C@@H](Cc2ccc3ccccc3c2)C(=O)N1)C(N)=O [Analog #2] . Reported Amylase Release, analog Alone (10 μM)?
result: 5

This collection of values is drawn from patent US5462926A.
